test-target: human GST-HPK1 (1-346) (Homo sapiens)
Sequence (Q92918 1-346): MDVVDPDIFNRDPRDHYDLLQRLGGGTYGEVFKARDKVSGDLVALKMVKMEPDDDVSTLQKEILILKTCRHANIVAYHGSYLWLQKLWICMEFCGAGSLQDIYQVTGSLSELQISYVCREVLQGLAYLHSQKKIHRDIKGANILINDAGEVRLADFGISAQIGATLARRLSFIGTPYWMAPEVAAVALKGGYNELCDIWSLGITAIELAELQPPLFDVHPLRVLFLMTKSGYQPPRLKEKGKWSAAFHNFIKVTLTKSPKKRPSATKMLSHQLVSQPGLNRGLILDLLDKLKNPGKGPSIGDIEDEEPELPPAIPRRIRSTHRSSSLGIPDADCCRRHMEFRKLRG
In this section we review reported IC50 values for a set of molecules.

>  <molecule>
COc1cc(C(=O)N2CCC(N3CCN(C)CC3)CC2)ccc1Nc1nc(N2OCC[C@H]2c2ccccc2)c2cc[nH]c2n1

>  <IC50>
> 500 nM

$$$$

Continue with the molecule presented below.
Measured IC50 of CN(C)[C@@H]1CCN(c2ccc(Nc3nc(N4N=CCC4c4ccccc4)c4sccc4n3)cc2)C1 (some centres unmarked) : > 500 nM
